Target: T1, VEGF110 (hVEGF110, aa 207-318) (human, UniProt P15692 207-318)
T1 sequence (looked up): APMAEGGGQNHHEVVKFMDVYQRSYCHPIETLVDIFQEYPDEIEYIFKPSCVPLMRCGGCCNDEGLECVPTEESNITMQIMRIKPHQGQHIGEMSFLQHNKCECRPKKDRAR
Test: cell-based or functional assay
observed_property: IC50 (M), inhibition of VEGFR1 signaling (luciferase), 20 pM VEGF110
The response must be a number in M with no trailing unit.

Query block: Bench note: what IC50 (M), inhibition of VEGFR1 signaling (luciferase), 20 pM VEGF110 did REGN7850 (VEGF mini-trap-hFc …) (receptor, Recombinant homodimer; also called REGN7850 (CPPCPPC)) SDTGRPFVEMYSEIPEIIHMTEGRELVIPCRVTSPNITVTLKKFPLDTLIPDGKRIIWDSRKGFIISNATYKEIGLLTCEATVNGHLYKTNYLTHRQTNTIIDVVLSPSHGIELSVGEKLVLNCTARTELNVGIDFNWEYPSSKHQHKKLVNRDLKTQSGSEMKKFLSTLTIDGVTRSDQGLYTCAASSGLMTKKNSTFVRVHEKDKTHTCPPCPPC show?
Result block: 1.22e-11

Data provenance is patent US20230063116A1.
